# Measured Target: hM3 mAChR (Homo sapiens)
# Construct: expressed in transfected cells; host or cells: CHO-K1 (membrane preparation)
# Sequence (P20309 whole entry): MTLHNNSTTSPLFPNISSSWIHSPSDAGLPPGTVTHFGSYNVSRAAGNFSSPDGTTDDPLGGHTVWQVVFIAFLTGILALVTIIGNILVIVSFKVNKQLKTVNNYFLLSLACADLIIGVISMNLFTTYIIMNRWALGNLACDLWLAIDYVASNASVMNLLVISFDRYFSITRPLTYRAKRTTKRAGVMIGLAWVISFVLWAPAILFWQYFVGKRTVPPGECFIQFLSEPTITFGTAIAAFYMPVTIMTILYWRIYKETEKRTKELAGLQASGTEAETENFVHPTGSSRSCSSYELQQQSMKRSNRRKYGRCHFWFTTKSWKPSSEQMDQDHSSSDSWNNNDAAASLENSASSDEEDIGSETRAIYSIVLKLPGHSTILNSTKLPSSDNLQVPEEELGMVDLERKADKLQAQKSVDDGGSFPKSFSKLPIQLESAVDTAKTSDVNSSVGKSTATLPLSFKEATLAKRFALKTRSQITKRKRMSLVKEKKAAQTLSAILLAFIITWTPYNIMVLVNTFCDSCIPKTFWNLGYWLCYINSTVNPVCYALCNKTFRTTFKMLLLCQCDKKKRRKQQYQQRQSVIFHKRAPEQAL
# Measurement Notes: [3H]NMS inhibition radioligand binding, hM3 in CHO-K1 cell membranes
# Stated Conditions: [3H]NMS, CHO-K1 cell membranes; mean ± S.E.M.; read-out: pKi hM3 (converted)
# Protocol: CHO-K1 cells stably transfected with the human muscarinic receptor subtypes (hM1–5) were grown in Dulbecco’s modified Eagle’s medium (DMEM) with nutrient mixture F12 (DMEM/F12, 50/50), containing 10% fetal bovine serum, penicillin (100 U/mL), streptomycin (100 U/mL), L-glutamine (4 mM), and geneticin (G-418, 50 μg/mL) at 37 °C in a 5% CO2 humidified incubator. […] The protein content was determined by the method of Bradford (1976) with bovine serum albumin (Sigma) as a standard and stored at −80 °C. […]
Test Readout: Ki (nM)
Entry rule: numbers only, all in nM.

Query block: Query: Ki; subject: C[N+](C)(C)C[C@@H]1COC(c2ccccc2)C(c2ccccc2)(c2ccccc2)O1 (stereo in doubt) [19b]
Result block: 1100

Query block: Moving on to C[N+](C)(C)CC1COC(c2ccccc2)(c2ccccc2)CO1 (stereo not shown)
Result block: 135

Query block: Moving on to C[N+](C)(C)C[C@@H]1COC(c2ccccc2)C(c2ccccc2)(c2ccccc2)O1 (stereo in doubt) [19a]
Result block: 2000
